From: patent US20180334496A1

molecular target: T1, recombinant cynomolgus CFD, His-tagged (cynomolgus); assay: SPR MX96
T1 construct: also called rcyCFD-His; recombinant Cyno-CFD
pKd: −log10 of the molar value.
Think of 8 as a floor: if pKd stands on it or above, it is y; beneath it, n.

Observe how each entry below is paired with its result.
binder	assigned category
KCD011 (antibody, V domains shown) VH: EVKLVESGGGLVQPGGSLKLSCAASGFTFSSNTMSWVRQTPEKRLEWVAYITNGGGSTYYPDTVKGRFTISRDNARNTLYLQMSSLKSEDTAMYYCARHDYYTMDYWGQGTSVTVSS VL: DIQMTQSPSSLSASLGGKVTITCKASQDINKYIAWYQHKPGKGPRLLIHYTSTLQPGIPSRFSGSGSGRDYSFSISNLEPEDIATYYCLQYDNLLYTFGGGTKLEIK	n
KCD207 (antibody, V domains shown) VH: AVQLVESGGGLVQPKGSLKLSCAASGFSFNTYAMNWVRQAPGKGLEWVARIRSKSNNYATYYADSVKDRFTLSRDDSESMLYLQMNNLKTEDTAMYYCVRQGFYWYFDVWGTGTTVTVSS VL: DVLMTQTPLSLPVSLGDQASISCRSSQTIVHSNGNTYLEWYLQKSGQSPKLLIYNVSNRFSGVPDRFRGSGSGTDFTLKISRVEAEDLGVYYCFQGSHVPYTFGSGTKLEIK	y
KCD070 (antibody, V domains shown, chimeric) VH: EIQLQQTGPELVKPGASVKISCKASGYSFTDYIILWVKQSHGKSLEWIGNINPYYDYTSYNLKFKGKATLTVDKSSSTAYMQLNSLTSEDSAVYYCARSDGYYGGDYWGQGTSVTVSS VL: DIVMTQSHKFMSTSVGDRVSITCKASQDVGTAVAWYQQKPGQSPKLLIYWASTRHTGVPDRFTGSGSGTDFTLTINNVQSEDLADYFCQQYSSYPWTFGGGTTLEIK	y

Check the entry KCD103 (antibody, V domains shown, chimeric) VH: QVQLQQPGAELVRPGTSVKLSCKASGYTFTSYWMHWVKQRPGQGLEWIGVIDPSDSYTKYNQKFKDKATLTVETSSSTAYMQLSSLTSEDSAVYYCAGNGYDGSMDYWGQGTSVTVSS VL: DIQMTQTTSSLSASLGDRVTISCRASQDISNSLNWYQQKPDGTVKLLIYYTSRLHSRVPSRFSGSGSGTDYSLTISNLDQEDIATYFCQQANTLPYTFGGGTKLEIK : does pKd equal or exceed 8?
n
